Data credit: the RNAGym collection of RNA variant scans (doi:10.1073/pnas.2313332121)

B1: TPR 5TU (parent)
chain: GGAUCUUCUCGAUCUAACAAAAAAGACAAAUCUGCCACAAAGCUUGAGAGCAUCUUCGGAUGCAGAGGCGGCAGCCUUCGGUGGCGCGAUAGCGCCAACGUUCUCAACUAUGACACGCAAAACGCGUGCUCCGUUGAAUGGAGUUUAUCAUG

Variants of: B1
assay remarks: polymerase ribozyme fitness, log enrichment relative to wild type (log ratio); higher = more active; in vitro selection for triplet polymerase activity
This sample holds only a part of the variants without activity.
value kind: polymerase ribozyme fitness (log ratio)

Request: Look up polymerase ribozyme fitness (log ratio) for this variant: C57U G94U
Response: -0.85

Request: Recorded polymerase ribozyme fitness (log ratio) of A30G G86C A147C , please.
Response: ≤ -4.2

Request: Give its polymerase ribozyme fitness (log ratio) value. Item: C87A C93U C95U G100A C116U A121G C129A U130G
Response: ≤ -4.2

Request: Please look up its polymerase ribozyme fitness (log ratio): G80U G81C G84U A89U A97U G100A G126U
Response: ≤ -4.2

Request: Entry under review: C54G A66C G70C G100C . Reported polymerase ribozyme fitness (log ratio)?
Response: ≤ -4.2

Request: Which measured polymerase ribozyme fitness (log ratio) value corresponds to C36A U56A C57A A122G U127C ?
Response: ≤ -4.2

Request: Can you look up the measured polymerase ribozyme fitness (log ratio) of U44G A52C U77C G83A C99A C118A U145G for me?
Response: ≤ -4.2

Request: Which value of polymerase ribozyme fitness (log ratio) has been reported for A52G C87U G141A U148A in the records?
Response: ≤ -4.2

Request: Please look up its polymerase ribozyme fitness (log ratio): G42A G59U C76U G88U C103G G152U
Response: ≤ -4.2

Request: Give its polymerase ribozyme fitness (log ratio) value. Item: A28C C54A C95A C105U U145A
Response: ≤ -4.2

Request: Would you mind telling me what polymerase ribozyme fitness (log ratio) value was observed for G48A C85G A98U C99U ?
Response: -3.36

Request: Which polymerase ribozyme fitness (log ratio) is reported for this variant? C38U G83C
Response: -0.262

Request: Need polymerase ribozyme fitness (log ratio), item A19U G94A
Response: -1

Request: Item under review: U4C U7G C27U U31A G68U G88U . Reported polymerase ribozyme fitness (log ratio)?
Response: ≤ -4.2

Request: # get_value(readout='polymerase ribozyme fitness (log ratio)', item= C114U A137U )
Response: -4.05

Request: Data request, read-out polymerase ribozyme fitness (log ratio), for A30G G48A C54U C85U
Response: ≤ -4.2

Request: Recorded polymerase ribozyme fitness (log ratio) of C54G U82A , please.
Response: -1.98

Request: If you can, please state the reported polymerase ribozyme fitness (log ratio) value of A37U U45A G46C C85U C105U U144A .
Response: ≤ -4.2

Request: Would you mind telling me what polymerase ribozyme fitness (log ratio) value was observed for C57A C87U C103G ?
Response: -2.01

Request: I am curious: what polymerase ribozyme fitness (log ratio) value has been reported for A12U A39U A150C ?
Response: ≤ -4.2

Request: What measured polymerase ribozyme fitness (log ratio) goes with G74A U77G G83A ?
Response: ≤ -4.2

Request: Which polymerase ribozyme fitness (log ratio) is reported for this variant? A17U A19G C36U G42C G50A A73U A147C
Response: ≤ -4.2

Request: Need polymerase ribozyme fitness (log ratio), item G59C C93U C116U U135G
Response: -3.78

Request: Recorded polymerase ribozyme fitness (log ratio) of A17G A39C A107U , please.
Response: ≤ -4.2

Request: Please look up its polymerase ribozyme fitness (log ratio): A20U G42C C75A C105U C116U A120G G128A U146A
Response: ≤ -4.2

Request: Looking for the measured polymerase ribozyme fitness (log ratio) of U15C U53A A98G C105G U146G , can you help?
Response: ≤ -4.2

Request: Find the recorded polymerase ribozyme fitness (log ratio) belonging to C85A U109G and report it.
Response: -1.33

Request: Give the measured polymerase ribozyme fitness (log ratio) of C27U G86A .
Response: -2.94

Request: # get_value(readout='polymerase ribozyme fitness (log ratio)', item= G59A G70U C93G A113U )
Response: ≤ -4.2

Request: Which polymerase ribozyme fitness (log ratio) value is on record for A41C A49U U53A A60C G88U A122U U134A ?
Response: ≤ -4.2

Request: Quick check: polymerase ribozyme fitness (log ratio) of G86A C118U G141C ?
Response: -1.77

Request: Fill in the blank: the reported polymerase ribozyme fitness (log ratio) of C51A C96A A115G A137U is ____.
Response: ≤ -4.2

Request: Please look up its polymerase ribozyme fitness (log ratio): A22G C27A A29G C38U G50C C72U G84A C118A
Response: ≤ -4.2

Request: Would you mind telling me what polymerase ribozyme fitness (log ratio) value was observed for U61A U77A C95U A97C U139A A150G ?
Response: ≤ -4.2

Request: Record request: polymerase ribozyme fitness (log ratio) value, item G58A G94A
Response: -0.945

Request: Dear colleague, I am looking for the recorded polymerase ribozyme fitness (log ratio) of the following variant: A41C C69A
Response: -2.53

Request: Consider the variant shown here: A29U G50U C116U A147U What is its recorded polymerase ribozyme fitness (log ratio)?
Response: -4.04

Request: // lookup polymerase ribozyme fitness (log ratio) for U6A C54U G58C C85A U134C
Response: -1.4

Request: Recorded polymerase ribozyme fitness (log ratio) for G46U C103G G124A U151G , please?
Response: ≤ -4.2

Request: Report polymerase ribozyme fitness (log ratio) for C57U G84A please.
Response: -0.782

Request: Consider the variant G25C C27G C32U A40C U55A C57A G88U C96U G141A and give its measured polymerase ribozyme fitness (log ratio).
Response: ≤ -4.2

Request: Return reported polymerase ribozyme fitness (log ratio); argument: C96G A97G G143U
Response: -3.14

Request: What polymerase ribozyme fitness (log ratio) value was documented for this variant, A19C U45A G67A ?
Response: ≤ -4.2

Request: # get_value(readout='polymerase ribozyme fitness (log ratio)', item= U4C C57U A66C C87U )
Response: ≤ -4.2

Request: Bench note: what polymerase ribozyme fitness (log ratio) did C51U G86A show?
Response: -2.13

Request: // query polymerase ribozyme fitness (log ratio) value for entry C14G C18U U144C
Response: -2.22
